Data credit: paper PMC5939191

Experiment: Apparent aqueous solubility by the dissolution method
Conditions: water, 22 °C, thermodynamic from solid
Where a name gives a salt, the structure may show the parent alone.
Some molecules, each annotated with its measured solubility.
Number in mg/mL, nothing else.

MOLECULE: O=c1n(CCCN2CCN(c3cccc(Cl)c3)CC2)nc2ccccn12 [[TrH]Cl, Trazodone hydrochloride]
SCALE_UNIT: mg/mL
solubility: 38.5

Request: What measured solubility goes with CCCC[N+]1(C)[C@@H]2C[C@@H](OC(=O)[C@H](CO)c3ccccc3)C[C@H]1[C@@H]1O[C@@H]12 (some centres unmarked) [[Bs]Br, Butyl scopolammonium bromide] ?
Result: 1800
